Molecular target: Protein FosB (Mus musculus)
Assay: activators of delta FosB homodimer, primary screen, biochemical, fluorescence polarization, TAMRA-CDK5 oligo, single point (AID 493131);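 further: fluorescence polarization rise as delta FosB binds a TAMRA Cdk5 AP-1 oligo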
Conditions: purified delta FosB, at 25 µM, hits give high values, percent of positive-control signal above neutral wells
The whole screen tested about 340,000 compounds, of which about 3,300 (0.97%) were called active. Shown is part of a subset that was picked to be rich in actives.
result-type: activation (%)
Expressed in %, but write only the number.

// below: answered compounds
compound	result-type	measurement-unit	number
Cc1ccc2occ(/C=N/NC(=O)c3ccccc3C)c(=O)c2c1	activation	%	-9.18
COc1ccc(OC)c(CNC(=O)Cn2nc(C)c3c(C)n(-c4ccc(C)cc4)nc3c2=O)c1	activation	%	113
Cc1c[n+]([O-])ccc1[N+](=O)[O-]	activation	%	1.75
Cc1ccccc1NC(=O)CCOc1ccccc1	activation	%	-7.98
O=C(Cn1cc(-c2nnnn2-c2ccc(Cl)cc2)c(=O)c2ccccc21)c1ccccc1	activation	%	114

Exercise: Give the measured activation for O=C(NC(=S)Nc1ccc(NC(=O)c2cccs2)cc1)c1ccc([N+](=O)[O-])cc1
Key: -0.174

Exercise: Give the measured activation for CC(C)=C1C2CCC1C1C(=O)N(NC(=O)c3ccco3)C(=O)C21 (stereo not drawn)
Key: 5.44

Exercise: Give the measured activation for NC(=O)NC(=O)CSc1nc2cc([N+](=O)[O-])ccc2n1-c1cccc(C(F)(F)F)c1
Key: 20.9

Exercise: Give the measured activation for CCc1ccc(NC(=O)c2ccc(Cn3cc([N+](=O)[O-])cn3)cc2)cc1
Key: 4.46

Exercise: Give the measured activation for O=C(Nc1ccccc1)c1ccc(NC(=O)c2cccs2)cc1
Key: 19

Exercise: Give the measured activation for COc1ccc2sc(N(CCCN(C)C)C(=O)c3ccc(S(=O)(=O)N(C)C4CCCCC4)cc3)nc2c1
Key: 15.3

Exercise: Give the measured activation for CC(C)Nc1ccc(-n2nc3ccccc3[n+]2[O-])cc1
Key: -2.96

Exercise: Give the measured activation for CC1=NN(c2cccc(Cl)c2)C(=O)C12CC(C)=C(C)CS2 (stereo not drawn)
Key: -6.87

Exercise: Give the measured activation for O=C(c1cccc(N2CCCC2=O)c1)N1CCOCC1
Key: -2.25

Exercise: Give the measured activation for CC(=O)Nc1ccc(Nc2c([N+](=O)[O-])cc(S(C)(=O)=O)cc2[N+](=O)[O-])cc1
Key: 9.05
